Measured inhibition of individual entries
- target-desc: Serine/threonine-protein kinase DCLK2 (Homo sapiens);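 also: reported value is the mean percent inhibition of DCAMKL2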
- test-context: at 0.1 µM
Provide only the numeric value, understood in %.

- COc1cccc(/C=N/Nc2ncnc3c2cnn3-c2cccc(OC)c2)c1: -0.11
- Cc1ccc(C(=O)NC2CCC2)cc1-c1ccc(C(=O)NCC2CC2)cc1: 0.61
- Fc1ccc(-c2ncn(CCCN3CCOCC3)c2-c2ccncc2)cc1: -1.56

Then there is this compound:
Task: // query inhibition value for entry Fc1ccc(-c2ncn(C3CCNCC3)c2-c2ccnc(Oc3ccc(F)c(F)c3)n2)cc1
Output: -3.27

* * *

- target-desc: Mitogen-activated protein kinase 14 (Homo sapiens) (UniProt Q16539);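 also: values are mean percent inhibition of p38alpha kinase activity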
- Sequence (Q16539 whole entry): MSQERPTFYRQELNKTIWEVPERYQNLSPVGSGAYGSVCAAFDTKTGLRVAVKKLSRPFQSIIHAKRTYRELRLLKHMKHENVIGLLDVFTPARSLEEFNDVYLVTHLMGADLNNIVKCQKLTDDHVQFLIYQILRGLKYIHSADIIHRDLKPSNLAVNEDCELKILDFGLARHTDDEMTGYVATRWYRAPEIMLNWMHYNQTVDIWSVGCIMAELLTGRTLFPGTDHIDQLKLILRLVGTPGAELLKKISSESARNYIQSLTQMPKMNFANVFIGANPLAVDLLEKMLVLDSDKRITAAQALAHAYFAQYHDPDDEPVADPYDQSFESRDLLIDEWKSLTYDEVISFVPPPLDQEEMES
- test-context: at 1 µM
Examples of compounds with documented inhibition follow.
Give your result in % as a bare value.

Record excerpt, results attached:
- O=C(Nc1n[nH]c2cc(-c3cc(F)ccc3F)ccc12)C1CC1: 8.79
- COc1cc2ncn(-c3cc(OCCc4ccccc4)c(C(N)=O)s3)c2cc1OC: 13.1
- NC(=O)c1cc(-c2ccncc2)cc(-c2ccccc2)c1N: 14.9

Task: Form field: reported inhibition of NC(=O)c1cc(-c2ccc(F)cc2)cc(-c2ccncc2)c1N
Output: 8.6

Task: GET /values?readout=inhibition&item= NS(=O)(=O)c1ccc(N/N=C2\C(=O)Nc3ccc(C(=O)NCCCn4ccnc4)cc32)cc1
Output: 7.84

Task: # get_value(readout='inhibition', item= CCS(=O)(=O)c1ccc(OC)c(Nc2ncc(-c3cccc(-c4ccccc4F)c3)o2)c1 )
Output: 8.57

Task: May I ask what inhibition has been recorded for COc1cccc(-n2cnc3c(N/N=C/c4ccncc4)ncnc32)c1 ?
Output: -0.98

Task: Sample COc1cc(Nc2ncc3c(C)nc(-c4cccc(Oc5ccccc5)c4)n3n2)cc(OC)c1OC — what was its inhibition?
Output: 4.12

Task: Value lookup for inhibition; key = NS(=O)(=O)c1ccc(Nc2cc(-c3ccc(O)c(F)c3)n[nH]2)cc1
Output: -2.41

* * *

The reader will find reported inhibition values listed item by item below.
- target-desc: CDK3/Cyclin E (Homo sapiens) (UniProt P24864+Q00526);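 also: each figure is a mean percent inhibition of the CDK3/cyclin E complex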
- Sequence (P24864 whole entry, looked up): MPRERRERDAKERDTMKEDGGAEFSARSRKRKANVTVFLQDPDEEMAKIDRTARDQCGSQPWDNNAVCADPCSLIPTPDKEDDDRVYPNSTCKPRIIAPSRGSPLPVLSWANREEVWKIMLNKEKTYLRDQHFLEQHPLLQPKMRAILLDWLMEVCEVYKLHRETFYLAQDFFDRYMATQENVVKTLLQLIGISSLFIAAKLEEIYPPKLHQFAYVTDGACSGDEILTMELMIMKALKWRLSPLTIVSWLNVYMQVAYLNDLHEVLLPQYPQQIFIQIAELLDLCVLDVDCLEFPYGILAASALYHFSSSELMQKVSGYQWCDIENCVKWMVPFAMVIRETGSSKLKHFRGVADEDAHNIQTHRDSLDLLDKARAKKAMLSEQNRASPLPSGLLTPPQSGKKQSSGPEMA
- Sequence (Q00526 whole entry, looked up): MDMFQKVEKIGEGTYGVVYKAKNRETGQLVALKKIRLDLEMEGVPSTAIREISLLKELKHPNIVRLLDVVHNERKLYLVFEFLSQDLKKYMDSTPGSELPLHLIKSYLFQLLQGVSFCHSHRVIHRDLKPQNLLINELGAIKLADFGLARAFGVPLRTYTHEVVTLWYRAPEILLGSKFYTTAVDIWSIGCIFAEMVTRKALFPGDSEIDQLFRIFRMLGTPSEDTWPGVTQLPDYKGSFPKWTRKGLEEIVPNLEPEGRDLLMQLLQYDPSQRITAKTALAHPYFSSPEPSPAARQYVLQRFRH
- test-context: at 1 µM
Write the answer as a number in %, unit excluded.

Some solved entries appear below for comparison.
• COc1ccc2ncn(-c3cc(O[C@H](C)c4ccccc4Cl)c(C(N)=O)s3)c2c1 = -2.98
• COc1cc(Nc2ncc3c(C)nc(-c4cccc(C(F)(F)F)c4)n3n2)cc(OC)c1OC = 7.51
• CS(=O)(=O)CCNCc1cc(-c2cc3c(Nc4ccc(OCc5cccc(F)c5)c(Cl)c4)ncnc3s2)cs1 = -0.74
• C/C(Nc1ccc(S(N)(=O)=O)cc1)=C1/C(=O)Nc2ccccc21 = 50.1
• CCc1ccc(Oc2nccc(-c3c(-c4ccc(F)cc4)ncn3C3CCNCC3)n2)cc1 = -3.4

Task: I am curious: what inhibition value has been reported for NS(=O)(=O)c1ccc(Nc2cc(-c3ccc(O)c(F)c3)n[nH]2)cc1 ?
Output: 60.1

Task: // inhibition lookup, key: CCN(CC)Cc1ccc(Nc2nccc(-c3cnn4ncccc34)n2)cc1
Output: 78.8

Task: Look at this compound and give its reported inhibition. O=C(Nc1ccc(Oc2ccc3[nH]c(NC(=O)c4ccccc4)nc3c2)cc1)Nc1cc(C(F)(F)F)ccc1F
Output: -1.42

Task: What does the data say about its inhibition? Entry: O=C1Nc2ccccc2/C1=C/Nc1ccc(-n2cncn2)cc1
Output: 16.1

* * *

- target-desc: 5'-AMP-activated protein kinase catalytic subunit alpha-1 (Homo sapiens) (UniProt Q13131);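 also: mean percent inhibition of the AMPK A1B1G1 complex (alpha1 beta1 gamma1) in the GSK PKIS kinase inhibitor screen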
- Sequence (Q13131 whole entry, looked up): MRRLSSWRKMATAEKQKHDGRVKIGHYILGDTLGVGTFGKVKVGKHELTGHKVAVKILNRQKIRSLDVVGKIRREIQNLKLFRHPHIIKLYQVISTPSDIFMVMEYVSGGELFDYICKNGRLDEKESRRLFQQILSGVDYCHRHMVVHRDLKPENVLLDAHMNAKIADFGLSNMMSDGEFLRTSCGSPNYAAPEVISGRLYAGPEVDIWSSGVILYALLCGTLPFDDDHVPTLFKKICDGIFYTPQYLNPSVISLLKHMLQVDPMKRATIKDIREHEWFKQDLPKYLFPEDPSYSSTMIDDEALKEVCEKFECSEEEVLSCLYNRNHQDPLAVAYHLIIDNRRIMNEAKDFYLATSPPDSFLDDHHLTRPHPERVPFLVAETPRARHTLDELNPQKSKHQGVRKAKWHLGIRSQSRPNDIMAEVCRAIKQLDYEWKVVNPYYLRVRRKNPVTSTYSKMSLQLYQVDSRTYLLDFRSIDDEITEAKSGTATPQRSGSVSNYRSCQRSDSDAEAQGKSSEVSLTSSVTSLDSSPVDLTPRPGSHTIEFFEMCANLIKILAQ
- test-context: at 1 µM
Documented inhibition across a set of compounds
A number alone suffices; assume %.

- O=C(NCC1CC1)c1ccc(-c2cccc(C(=O)NC3CC3)c2)cc1: 3.29
- CS(=O)(=O)CCNCc1ccc(-c2ccc3ncnc(Nc4ccc(OCc5ccccc5)c(Br)c4)c3c2)o1: 1.46
- NS(=O)(=O)c1ccc(N/N=C2\C(=O)Nc3ccc(-c4cnco4)cc32)cc1: 15.9
- COc1ccc2cc(-c3c(-c4ccncc4)nc(-c4ccc(S(C)(=O)=O)cc4C)n3C)ccc2c1: 2.77
- CCC(=O)Nc1ccc(C)c(-c2ccc(C(=O)NCC3CC3)cc2)c1: 2.54

With those in mind, consider the next compound.
Task: Name the reported inhibition value associated with the compound C[C@@H](Oc1cc(-n2cnc3ccc(OCC4CCN(C)CC4)cc32)sc1C(N)=O)c1ccccc1Cl
Output: 24.5

* * *

- target-desc: Serine/threonine-protein kinase Sgk2 (Homo sapiens) (UniProt Q9HBY8);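 also: each value is a mean percent inhibition of SGK2 from the GSK PKIS kinase screen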
- Sequence (whole entry): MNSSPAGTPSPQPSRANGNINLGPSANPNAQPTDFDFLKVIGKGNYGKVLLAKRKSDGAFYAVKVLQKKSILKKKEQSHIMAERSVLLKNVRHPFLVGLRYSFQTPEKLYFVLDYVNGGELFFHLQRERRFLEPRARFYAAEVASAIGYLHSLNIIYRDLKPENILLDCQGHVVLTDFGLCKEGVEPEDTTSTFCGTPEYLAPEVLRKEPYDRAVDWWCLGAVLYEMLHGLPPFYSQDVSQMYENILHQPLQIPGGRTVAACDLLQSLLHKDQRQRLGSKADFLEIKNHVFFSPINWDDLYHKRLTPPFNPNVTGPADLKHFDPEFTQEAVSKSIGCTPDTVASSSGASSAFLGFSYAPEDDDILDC
- test-context: at 0.1 µM
Measured inhibition values are reported for all entries that follow.
Report the figure in % without appending any unit label.

• COc1cc2ncn(-c3cc(OCCc4ccccc4)c(C(N)=O)s3)c2cc1OC = -0.42
• COc1cccc(-n2cnc3c(N/N=C/c4ccncc4)ncnc32)c1 = 1.67
• Nc1nccc(-c2c(-c3ccc(F)cc3)ncn2C2CCC(O)CC2)n1 (configuration not stated) = -3.55
• C#Cc1cccc(Nc2ncnc3ccc(OCCCCNCCS(C)(=O)=O)cc23)c1 = 3.88
• Cc1ccc(C(=O)NC2CCC2)cc1-c1ccc(C(=O)NCC2CC2)cc1 = 0.49
• NCc1ccc(-n2c(-c3nonc3N)nc3cnccc32)cc1 = 5.18

Task: Quick check: inhibition of CCc1cccc(CC)c1/C=C/c1cncc(C(=O)NC)c1 ?
Output: 3.62

Task: Which measured inhibition value corresponds to O=C(NCC1CC1)c1ccc(-c2cccc(C(=O)NC3CC3)c2)cc1 ?
Output: 0.58

Task: Entry Clc1ccc(CNc2nccc(-c3cnn4ncccc34)n2)cc1 has what inhibition?
Output: 3.3

Task: What does the record list as inhibition for O=C1Nc2ccc(I)cc2C1=Cc1cc(Br)c(O)c(Br)c1 ?
Output: 1.05

Task: Look at this compound and give its reported inhibition. FC(F)(F)c1cccc(Nc2nccc(-c3cnn4nc(-c5ccccc5)ccc34)n2)c1
Output: 1.96

Task: Which inhibition reading was recorded for the compound NS(=O)(=O)c1ccc(N/N=C2\C(=O)Nc3ccc(-c4cnco4)cc32)cc1 ?
Output: 1.11

Task: Entry Fc1ccc(-c2c(-c3ccncc3)nc3n2CCS3)cc1 has what inhibition?
Output: 1.42

Task: Fill in: inhibition of C[C@@H](Oc1cc(-n2cnc3ccc(OC4CCN(C)CC4)cc32)sc1C(N)=O)c1ccccc1Cl is ___
Output: 2.92

Task: Any idea what inhibition was measured for C[C@@H](Oc1cc(-n2cnc3ccc(OCC4CCN(C)CC4)cc32)sc1C(N)=O)c1ccccc1Cl ?
Output: 4.94

Task: Look up inhibition for this compound: COc1cccc(/C=N/Nc2ncnc3c2cnn3-c2cccc(OC)c2)c1
Output: 1.32

Task: What does the record list as inhibition for COc1cc(Nc2ncc3c(C)nc(-c4cccc(Oc5ccccc5)c4)n3n2)cc(OC)c1OC ?
Output: 1.09

Task: Data request, read-out inhibition, for COc1ccc(-c2ccc3c(NC(=O)C4CC4)n[nH]c3n2)cc1
Output: 1.24

Task: Recorded inhibition of Fc1ccc(-c2ncn(CCCN3CCOCC3)c2-c2ccncc2)cc1 , please.
Output: 1.89

Task: Returns the measured inhibition for the input compound. Input: CCC(=O)Nc1ccc(C)c(-c2ccc(C(=O)NCC3CC3)cc2)c1
Output: 1.32

Task: Please look up its inhibition: NC(=O)c1cc(-c2ccc(F)cc2)cc(-c2ccncc2)c1N
Output: 1.44

Task: Please give the measured inhibition for this compound: COc1cc(Nc2ncc(-c3ccccc3)o2)cc(OC)c1OC
Output: 3.15

* * *

- target-desc: RAF proto-oncogene serine/threonine-protein kinase (Homo sapiens);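 also: values are the mean percent inhibition of CRAF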
- test-context: at 1 µM
inhibition by entry:
Reply with a number, then the unit it belongs to.

Below are worked cases with known answers.
* COc1cc(Nc2ncc(-c3ccccc3)o2)cc(OC)c1OC | -4.59%
* O=C1Nc2ccccc2/C1=C/Nc1ccc(-n2cncn2)cc1 | 5.44%
* C[C@@H](Oc1cc(-n2cnc3ccc(OCC4CCN(C)CC4)cc32)sc1C(N)=O)c1ccccc1Cl | 8.07%

Task: Could you tell me which inhibition is on file for CCC(=O)Nc1ccc(C)c(-c2ccc(C(=O)NCC3CC3)cc2)c1 ?
Output: -0.29%

Task: Given the entry NCc1ccc(-n2c(-c3nonc3N)nc3cnccc32)cc1 , report its measured inhibition.
Output: 3.91%

Task: Give the measured inhibition of O=C(Nc1n[nH]c2cc(-c3cc(F)ccc3F)ccc12)C1CC1 .
Output: -0.98%

Task: Which inhibition is reported for this compound? COC(=O)Nc1nc2ccc(Sc3ccc(NC(=O)Nc4cc(C(F)(F)F)ccc4F)cc3)cc2[nH]1
Output: 50%

Task: Dear colleague, I am looking for the recorded inhibition of the following compound: COc1ccc(C2=C(N3CCc4ccccc43)C(=O)NC2=O)cc1
Output: -3.87%

Task: For COc1ccc2cc(-c3c(-c4ccncc4)nc(-c4ccc([S+](C)[O-])cc4C)n3C)ccc2c1 (stereo unspecified) , what is its reported inhibition?
Output: 2.82%

Task: For the compound shown here, Fc1ccc(-c2nc3n(c2-c2ccncc2)CCS3)cc1 , give the reported inhibition.
Output: -0.15%

Task: Form field: reported inhibition of Fc1ccc(-c2ncn(CCCN3CCOCC3)c2-c2ccncc2)cc1
Output: -5.69%
